Reported MFI values follow for various binders
- TARGET_OF_ASSAY: T1, human TF on cells (MDA-MB-231, BxPC-3 and other tumor cells with high TF expression) (human, UniProt P13726 33-295)
- T1 construct: whole, on cells; Endogenous expression on tumor cell lines; also called cell surface TF
- TEST_SUMMARY: flow cytometry on MDA-MB-231 cells, antibody at 1 µg/mL
Could you give me the number in MFI? Just the number is fine.

• TF-mAb-H48 (antibody, V domains shown) VH: QVQLVQSGSELKKPGASVKVSCKASGYSFISYWMNWVRQAPGQGLEWIGMIYPADSETRLNQKFKDRAVLSVDKSVSTAYLQICSLKAEDTAVYYCAREDYGSSDYWGQGTTVTVSS VL: EIVLTQSPDFQSVTPKEKVTITCSASSSVSYMNWYQQKPDQSPKIWIYGISNLASGVPSRFSGSGSGTDFTLTINSLEAEDAATYYCQQKSSFPWTFGGGTKVEIK = 2610
• TF-mAb-H41 (antibody, V domains shown) VH: EVQLVQSGAEVKKPGESLKISCKGSGYSFTSYWMNWVKQMPGKGLEWMGMIYPADSETRLNQKFKDKATLSVDKSISTAYLQWSSLKASDTAMYYCAREDYGSSDYWGQGTTVTVSS VL: DIQLTQSPSSLSASVGDRVTITCSASSSVSYMNWYQQKPGKSPKIWIYGISNLASGVPSRFSGSGSGTDFTLTISSLQPEDFATYYCQQKSSFPWTFGGGTKVEIK = 3000
• TF-mAb-H37 (antibody, V domains shown) VH: QVQLVQSGAEVKKPGASVKVSCKASGYSFISYWMNWVRQAPGQGLEWIGMIYPADSETRLNQKFKDRATLTVDKSTSTAYMELSSLRSEDTAVYYCAREDYGSSDYWGQGTTVTVSS VL: EIVLTQSPATLSLSPGERATLSCSASSSVSYMNWYQQKPGQSPRIWIYGISNLASGVPARFSGSGSGTDFTLTISSLEPEDFAVYYCQQKSSFPWTFGGGTKVEIK = 2460

State, in one line, measured MFI of TF-mAb-H46 (antibody, V domains shown) VH: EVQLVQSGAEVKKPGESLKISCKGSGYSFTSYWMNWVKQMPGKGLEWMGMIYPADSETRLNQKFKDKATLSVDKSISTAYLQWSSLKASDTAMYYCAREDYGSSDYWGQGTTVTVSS VL: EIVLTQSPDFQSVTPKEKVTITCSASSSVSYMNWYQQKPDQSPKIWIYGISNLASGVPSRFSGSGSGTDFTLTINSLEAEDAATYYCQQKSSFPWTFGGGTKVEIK
3120

State, in one line, measured MFI of TF-mAb-H43 (antibody, V domains shown) VH: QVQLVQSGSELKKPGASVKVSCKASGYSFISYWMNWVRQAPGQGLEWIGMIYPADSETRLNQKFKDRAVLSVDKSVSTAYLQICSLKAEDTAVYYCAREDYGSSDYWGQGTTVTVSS VL: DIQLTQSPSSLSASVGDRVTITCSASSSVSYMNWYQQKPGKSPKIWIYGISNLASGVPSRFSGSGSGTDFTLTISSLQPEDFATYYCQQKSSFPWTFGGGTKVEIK
2820

State, in one line, measured MFI of TF-mAb-H38 (antibody, V domains shown) VH: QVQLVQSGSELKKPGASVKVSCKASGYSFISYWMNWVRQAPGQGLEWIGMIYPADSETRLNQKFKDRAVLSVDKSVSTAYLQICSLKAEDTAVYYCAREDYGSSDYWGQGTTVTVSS VL: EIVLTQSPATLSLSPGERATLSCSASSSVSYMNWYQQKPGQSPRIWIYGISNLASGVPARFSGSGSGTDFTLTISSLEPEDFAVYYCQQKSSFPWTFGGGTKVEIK
2870

State, in one line, measured MFI of TF-mAb-H42 (antibody, V domains shown) VH: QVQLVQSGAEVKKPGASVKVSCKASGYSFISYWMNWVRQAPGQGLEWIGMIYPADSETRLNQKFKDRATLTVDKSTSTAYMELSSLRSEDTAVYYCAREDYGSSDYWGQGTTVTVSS VL: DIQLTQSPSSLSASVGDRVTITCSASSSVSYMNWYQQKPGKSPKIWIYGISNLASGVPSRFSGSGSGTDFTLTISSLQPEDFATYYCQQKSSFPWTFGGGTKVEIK
2970

State, in one line, measured MFI of TF-mAb-H40 (antibody, V domains shown) VH: EVQLVQSGAEVKKPGESLKISCKGSGYSFTSYWMNWVRQMPGKGLEWMGMIYPADSETRLNQKFKDKATLSVDKSISTAYLQWSSLKASDTAMYYCAREDYGSSDYWGQGTTVTVSS VL: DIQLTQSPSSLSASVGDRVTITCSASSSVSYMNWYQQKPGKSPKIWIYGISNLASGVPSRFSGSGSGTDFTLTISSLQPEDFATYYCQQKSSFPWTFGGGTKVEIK
3180

State, in one line, measured MFI of TF-mAb-H33 (antibody, V domains shown) VH: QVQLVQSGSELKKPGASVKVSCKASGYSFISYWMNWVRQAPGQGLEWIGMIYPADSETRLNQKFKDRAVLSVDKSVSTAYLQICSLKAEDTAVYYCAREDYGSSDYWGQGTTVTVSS VL: EIVLTQSPATLSLSPGERATLSCSASSSVSYMNWYQQKPGQAPRIWIYGISNLASGIPARFSGSGSGTDFTLTISSLEPEDFAVYYCQQKSSFPWTFGGGTKVEIK
2420

State, in one line, measured MFI of TF-mAb-H29 (antibody, V domains shown) VH: EVQLVQSGAEVKKPGESLKISCKGSGYSFTSYWMNWVRQMPGKGLEWMGMIYPADSETRLNQKFKDQATLSVDKSISTAYLQWSSLKASDTAMYYCAREDYGSSDYWGQGTTVTVSS VL: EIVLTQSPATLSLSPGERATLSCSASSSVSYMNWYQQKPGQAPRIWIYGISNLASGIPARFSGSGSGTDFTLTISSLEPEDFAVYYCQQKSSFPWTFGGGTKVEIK
2960

Ref: patent US20230138930A1
